Target: ACE2 (Homo sapiens), Q9BYF1
Sequence (Q9BYF1 18-740): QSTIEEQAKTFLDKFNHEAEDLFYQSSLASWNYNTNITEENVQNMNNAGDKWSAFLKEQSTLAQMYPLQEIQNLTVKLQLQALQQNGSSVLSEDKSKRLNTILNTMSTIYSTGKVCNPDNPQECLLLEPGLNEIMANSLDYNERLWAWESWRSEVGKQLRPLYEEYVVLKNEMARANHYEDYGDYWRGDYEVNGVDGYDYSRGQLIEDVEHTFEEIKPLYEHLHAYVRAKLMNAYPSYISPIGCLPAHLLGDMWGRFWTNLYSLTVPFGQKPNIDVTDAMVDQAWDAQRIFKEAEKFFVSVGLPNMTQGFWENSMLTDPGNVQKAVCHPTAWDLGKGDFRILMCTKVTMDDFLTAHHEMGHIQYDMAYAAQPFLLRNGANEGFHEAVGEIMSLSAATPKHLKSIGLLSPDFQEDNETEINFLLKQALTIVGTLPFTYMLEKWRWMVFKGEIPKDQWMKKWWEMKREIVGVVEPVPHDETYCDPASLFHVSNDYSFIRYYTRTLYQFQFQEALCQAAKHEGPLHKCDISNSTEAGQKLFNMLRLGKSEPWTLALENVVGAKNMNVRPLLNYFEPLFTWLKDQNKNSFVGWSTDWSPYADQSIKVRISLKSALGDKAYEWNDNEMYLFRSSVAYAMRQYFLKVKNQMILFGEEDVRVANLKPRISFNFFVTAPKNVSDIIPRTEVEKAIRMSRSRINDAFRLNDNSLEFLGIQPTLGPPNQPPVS
Experiment: SPR
Settings: modification not given
pKd: −log10 of the molar value.
Observation Type: pKd

| Binder | Observation Type | Reported |
| --- | --- | --- |
| YKYRYLRHGKLR [RBD-11 peptide, P59594] | pKd | 4.07 |
